// data source = the RNAGym collection of RNA variant scans (doi:10.7554/elife.80360)

The following variants are listed with their measured self-cleavage values.
B1: CPEB3 Ribozyme (parent)
chain: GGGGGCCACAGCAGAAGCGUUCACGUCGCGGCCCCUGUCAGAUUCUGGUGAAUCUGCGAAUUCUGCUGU

Variants of: B1
Assay: self-cleavage, relative activity (ratio to wild type); higher = more cleavage; co-transcriptional

{"variant spec": "U26A G68C", "self-cleavage": 0.964}
{"variant spec": "C18G C54U", "self-cleavage": 0.15}
{"variant spec": "G11U U43C", "self-cleavage": 0.768}
{"variant spec": "A40C G50A", "self-cleavage": 0.423}

Problem: I would be grateful if you could share the reported self-cleavage for G1U A23G .
Result: 0.141

Problem: I would be grateful if you could share the reported self-cleavage for U46C U53C .
Result: 0.878

Problem: I would be grateful if you could share the reported self-cleavage for G4C G68C .
Result: 0.941

Problem: I would be grateful if you could share the reported self-cleavage for C22G U44G .
Result: 0.16

Problem: I would be grateful if you could share the reported self-cleavage for U53G U55G .
Result: 0.386

Problem: I would be grateful if you could share the reported self-cleavage for A15G A52G .
Result: 1.03

Problem: I would be grateful if you could share the reported self-cleavage for A51U A59G .
Result: 0.993
